Dear all, this message contains pIC50 results, target or system PARP1 (Homo sapiens (Human)).
Answer as the number alone; pIC50 is minus log10 of concentration in mol/L.

1) CC(C)N1CCN2C(=Nc3cccc4c(=O)[nH]nc2c34)C1 ... 6.95
2) CCN1CCN2C(=Nc3cccc4c(=O)[nH]nc2c34)C1 ... 7.18

Enquiry: Jot down pIC50 (PARP1 (Homo sapiens (Human))) of CN1CCN2C(=Nc3cccc4c(=O)[nH]nc2c34)C1 .
Return: 6.89

Enquiry: Provide pIC50, recorded with PARP1 (Homo sapiens (Human)), of O=c1[nH]nc2c3c(cccc13)N=C1CN(Cc3ccccc3)CCN12
Sequence (P09874 whole entry): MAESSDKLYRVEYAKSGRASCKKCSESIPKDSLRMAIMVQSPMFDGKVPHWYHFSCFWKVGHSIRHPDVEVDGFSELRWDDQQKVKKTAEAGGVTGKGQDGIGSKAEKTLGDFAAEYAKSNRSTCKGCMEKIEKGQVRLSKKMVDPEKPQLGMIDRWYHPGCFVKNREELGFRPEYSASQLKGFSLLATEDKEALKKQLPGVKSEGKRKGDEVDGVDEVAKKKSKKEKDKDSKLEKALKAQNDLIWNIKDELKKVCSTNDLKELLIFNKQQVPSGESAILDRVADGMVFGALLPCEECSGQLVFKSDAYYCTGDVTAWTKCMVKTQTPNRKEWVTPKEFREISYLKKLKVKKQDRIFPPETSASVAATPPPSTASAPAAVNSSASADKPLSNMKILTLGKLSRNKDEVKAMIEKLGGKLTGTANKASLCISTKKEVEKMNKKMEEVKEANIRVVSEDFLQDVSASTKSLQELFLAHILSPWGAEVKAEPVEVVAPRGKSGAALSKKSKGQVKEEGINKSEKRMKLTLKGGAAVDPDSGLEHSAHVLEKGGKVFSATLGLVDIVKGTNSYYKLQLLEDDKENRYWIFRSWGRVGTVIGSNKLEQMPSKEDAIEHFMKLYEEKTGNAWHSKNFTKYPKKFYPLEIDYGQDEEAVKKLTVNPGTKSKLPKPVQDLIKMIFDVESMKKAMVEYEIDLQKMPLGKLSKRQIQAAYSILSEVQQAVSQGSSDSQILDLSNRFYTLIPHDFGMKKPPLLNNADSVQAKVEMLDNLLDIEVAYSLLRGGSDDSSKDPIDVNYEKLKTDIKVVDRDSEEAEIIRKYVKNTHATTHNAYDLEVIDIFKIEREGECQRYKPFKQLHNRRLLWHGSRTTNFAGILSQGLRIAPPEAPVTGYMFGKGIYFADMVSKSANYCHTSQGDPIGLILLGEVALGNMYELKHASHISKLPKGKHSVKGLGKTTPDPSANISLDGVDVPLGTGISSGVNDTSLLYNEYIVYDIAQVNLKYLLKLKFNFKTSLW
Return: 7.23

Enquiry: Under PARP1 (Homo sapiens (Human)), report pIC50 for Cl.O=c1[nH]nc2c3c(cccc13)N=C1CNCCN12
Return: 7.04

Enquiry: Recall the reported pIC50 of C=C(C)CCN1CCN2C(=Nc3cccc4c(=O)[nH]nc2c34)C1 when tested on PARP1 (Homo sapiens (Human)).
Return: 7.41

----------
AUC(0-inf) overview
assayRemarks: Preliminary pharmacokinetics study in SD rats (single intravenous injection or oral gavage, plasma LC-MS/MS)
Format: in vivo
assayConditions: male, Sprague-Dawley (SD), rat, plasma, single intravenous injection, 5 mg/kg
// note: answer is a bare numeric in ng·h/mL

Enquiry: Complete the entry with AUC(0-inf) for CN1CCN2C(=Nc3cccc4c(=O)[nH]nc2c34)C1
Return: 2290

Enquiry: Quick one: give measured AUC(0-inf) for C=C(C)CCN1CCN2C(=Nc3cccc4c(=O)[nH]nc2c34)C1
Return: 1040

----------
assayRemarks: Preliminary pharmacokinetics study in SD rats (single intravenous injection or oral gavage, plasma LC-MS/MS)
Type: in vivo
assayConditions: male, Sprague-Dawley (SD), rat, plasma, single intravenous injection, 5 mg/kg
Protocol: 2. Preliminary Pharmacokinetics Study of Compounds A1, A3, A6 in SD Rats Healthy SPF SD male rats: 18, weighing 180-220 g, purchased from Shanghai Si Lai Ke Lab Animal Co. Ltd.; animal license no. SOCK (Shanghai) 2013-00016. Rats were divided into intravenous injection group and oral gavage administration group, and fast for 12-14 hours before experiments. Test compounds' concentration in venous blood was measured. Venous blood was collected by orbital, EDTAK2 anticoagulation. […]
property: AUC(0-t) (ng·h/mL)
Your answer is read as ng·h/mL, so omit the unit and give the number.

1. C=C(C)CCN1CCN2C(=Nc3cccc4c(=O)[nH]nc2c34)C1 ... 1000

# evaluate next
Enquiry: Give the value of AUC(0-t) reported for the following: CN1CCN2C(=Nc3cccc4c(=O)[nH]nc2c34)C1
Return: 2290

----------
assayRemarks: Preliminary pharmacokinetics study in SD rats (single intravenous injection or oral gavage, plasma LC-MS/MS)
Type: in vivo
assayConditions: male, Sprague-Dawley (SD), rat, in vivo, single intravenous injection, 5 mg/kg
property: AUC(0-inf) (ng·h/mL)
Give the quantity in ng·h/mL, number only.

Enquiry: Kindly indicate its recorded AUC(0-inf). Item: Cl.O=c1[nH]nc2c3c(cccc13)N=C1CNCCN12
Return: 4280

----------
Below, each of the compounds is paired with its reported half-life value.
assayRemarks: Preliminary pharmacokinetics study in SD rats (single intravenous injection or oral gavage, plasma LC-MS/MS)
Type: in vivo
assayConditions: male, Sprague-Dawley (SD), rat, plasma, single intravenous injection, 5 mg/kg
Provide only the numeric value, understood in min.

1) C=C(C)CCN1CCN2C(=Nc3cccc4c(=O)[nH]nc2c34)C1 ... 11.5

Now for the compound whose half-life we want.
Enquiry: Identify the reported half-life for the following entry. CN1CCN2C(=Nc3cccc4c(=O)[nH]nc2c34)C1
Return: 43.3
